# measured.on: T1, natriuretic peptide receptor-B (human)
# T1 chain: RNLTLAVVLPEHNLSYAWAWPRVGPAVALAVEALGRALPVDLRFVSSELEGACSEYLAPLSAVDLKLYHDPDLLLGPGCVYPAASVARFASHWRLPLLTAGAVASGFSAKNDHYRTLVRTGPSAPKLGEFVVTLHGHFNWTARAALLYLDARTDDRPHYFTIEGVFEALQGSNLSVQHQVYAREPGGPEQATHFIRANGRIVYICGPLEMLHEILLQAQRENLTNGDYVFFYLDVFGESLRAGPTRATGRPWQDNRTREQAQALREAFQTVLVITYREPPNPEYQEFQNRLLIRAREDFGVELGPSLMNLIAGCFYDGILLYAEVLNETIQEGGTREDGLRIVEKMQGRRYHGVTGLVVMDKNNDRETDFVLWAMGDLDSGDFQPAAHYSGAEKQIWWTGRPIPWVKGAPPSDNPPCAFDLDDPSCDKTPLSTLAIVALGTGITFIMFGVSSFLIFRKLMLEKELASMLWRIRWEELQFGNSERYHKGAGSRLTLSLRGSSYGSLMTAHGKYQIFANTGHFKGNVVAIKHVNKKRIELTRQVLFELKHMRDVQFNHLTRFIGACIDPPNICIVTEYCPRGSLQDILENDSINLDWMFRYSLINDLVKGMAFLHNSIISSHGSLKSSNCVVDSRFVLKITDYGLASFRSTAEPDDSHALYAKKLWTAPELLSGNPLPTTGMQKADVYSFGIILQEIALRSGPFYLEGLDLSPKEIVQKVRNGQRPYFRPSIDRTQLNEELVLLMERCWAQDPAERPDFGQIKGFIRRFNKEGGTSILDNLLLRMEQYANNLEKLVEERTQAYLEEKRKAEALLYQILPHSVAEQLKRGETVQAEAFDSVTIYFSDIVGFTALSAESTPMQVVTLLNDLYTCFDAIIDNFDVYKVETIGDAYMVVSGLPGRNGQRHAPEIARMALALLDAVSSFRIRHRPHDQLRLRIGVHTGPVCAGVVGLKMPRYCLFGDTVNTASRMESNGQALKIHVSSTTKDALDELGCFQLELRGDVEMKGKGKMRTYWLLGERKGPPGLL
# assay.notes: cell-based or functional assay
Numbered stars: 1 amine (or outer) side, 2 acyl side, 3 side chain; on linkers, the order of the positions; unused ones are H or OH. Square brackets hold non-standard residues; d marks the D form. Ends that are not written are not given here. * marks the point of attachment. 3421 = 3-Amino-4-hydroxy-benzoic acid, O=C(c1ccc(O[*:3])c(N[*:1])c1)[*:2]; Pro(trans-4-NH2) = O=C([C@@H]1C[C@@H](N[*:3])CN1[*:1])[*:2]; Sni = (S)-nipecotic acid, O=C([C@H]1CCCN([*:1])C1)[*:2]; Pbf = Cc1c(C)c(S(=O)(=O)*)c(C)c2c1OC(C)(C)C2; dDap(Me2) = CN(C)C[C@@H](N)C(=O)O; Hyp = O=C(O)[C@@H]1C[C@@H](O)CN1; NMeL = CN[C@@H](CC(C)C)C(=O)O; dPip = O=C(O)[C@H]1CCCCN1; Octanoyl = CCCCCCCC(=O)*; Ac5c = NC1(C(=O)O)CCCC1; Api = NC1(C(=O)O)CCNCC1; Che = not defined here; Fbz = not defined here; Hexanoyl = CCCCCC(=O)*; asn = not defined here; leu = not defined here; Occ = octanoic acid
measured.parameter: EC50 group, cGMP in GTM-3 cells

These solved cases illustrate the format of a correct answer.
binder	obs.value
Octanoyl-SFLL[Hyp][NMeL]DRI-NH2 (not fully specified (some residues); printed as Occ-ser-Phe-leu-Leu-Hyp-Nml-Asp-Arg-Ile-NH2) [JAL-1800]	≤ 5 µM
[Occ]AF[asn]LPLDRI-NH2 (not fully specified (residue 2); printed as Occ-ala-Phe-asn-Leu-Pro-Leu-Asp-Arg-Ile-NH2; reading uncertain) [JAL-1017]	≤ 5 µM
[Occ][Sni]F[Fbz]L[Hyp][NMeL]DRI-NH2 (reading uncertain; also: printed as Occ-Sni-Phe-Fbz-Leu-Hyp-Nml-Asp-Arg-Ile-NH2) [JAL-1881]	≤ 5 µM
Hexanoyl-[3421][Sni]F[dL]L[Hyp][NMeL]DRI-NH2 (not fully specified; printed as Hex-(3421)-Sni-Phe-leu-Leu-Hyp-Nml-Asp-Arg-Ile-NH2) [JAL-1616]	≤ 5 µM
[Occ][dA]F[dL]L[Hyp][NMeL]DR[Ac5c]-NH2 [JAL-1335]	≤ 5 µM
Octanoyl-AF[Api]L[Hyp][NMeL]DPI-NH2 (also: lower-case ala: meaning not given here) [JAL-1451]	≤ 5 µM

# batch size: 3; output EC50 group, cGMP in GTM-3 cells per entry
1. Octanoyl-[dPip]F[dL]L[Hyp]LDRI-NH2 [JAL-1054]
2. [Occ][Sni]F[dDap(Me2)]L[Pro(trans-4-NH2)][NMeL]DP[Che] (reading uncertain; also: printed as Occ-Sni-Phe-dap(Me2)-Leu-Tap-Nml-Asp-Pro-Che) [JAL-1603]
3. [Occ][Sni][Pbf][leu]L[Hyp][NMeL]DRI-NH2 (reading uncertain; also: printed as Occ-Sni-Pbf-leu-Leu-Hyp-Nml-Asp-Arg-Ile-NH2) [JAL-1619]

1. ≤ 1 µM
2. ≤ 1 µM
3. ≤ 1 µM
